For each entry below, report its IC50 value.
System: OS-RC-2
run description: Antiproliferative activity against human OS-RC-2 cells assessed as inhibition of cell growth incubated for 72 hrs by MTT assay
Assay type: functional, cell-based
measurement parameters: OS-RC-2, 72 h
Numbers only, in µM.

{"columns": ["structure as smiles", "target system", "units", "IC50"],
 "data": [
  ["COC(=O)c1ccc([C@H]2c3[nH]c4ccccc4c3C[C@H](C(=O)OC)N2C(=O)CCl)cc1", "OS-RC-2", "µM", 0.082]
]}

Now consider a different compound.
// query Fill blank: measured IC50 of the compound COC(=O)[C@H]1Cc2c([nH]c3ccccc23)[C@H](c2ccc(C(=O)NCCCCCCCNC(=O)CC34CC5CC(CC(C5)C3)C4)cc2)N1C(=O)CCl is ____.
// result 0.072

* * *

System: HT-1080
run description: HyT activity at GPX4/E3 ligase in human HT-1080 cells assessed as degradation of GPX4 protein at 0.2 uM incubated for 24 hrs by Western blotting analysis relative to control
Type: cell-based
# cutoff 40% applies to Activity; >= gives T, < gives F

Consider the worked cases shown below.
{"columns": ["structure as smiles", "discrete label"],
 "data": [
  ["COC(=O)[C@H]1Cc2c([nH]c3ccccc23)[C@H](c2ccc(C(=O)NCCNC(=O)CC34CC5CC(CC(C5)C3)C4)cc2)N1C(=O)CCl", "T"],
  ["COC(=O)[C@H]1Cc2c([nH]c3ccccc23)[C@H](c2ccc(C(=O)NCCCCCCCCCCNC(=O)CC34CC5CC(CC(C5)C3)C4)cc2)N1C(=O)CCl", "T"]
]}

// query Hello, I need to know if COC(=O)[C@H]1Cc2c([nH]c3ccccc23)[C@H](c2ccc(C(=O)NCCCCCCNC(=O)CC34CC5CC(CC(C5)C3)C4)cc2)N1C(=O)CCl has measured Activity not below 40%. Thanks!
// result T

// query Answer whether Activity of COC(=O)[C@H]1Cc2c([nH]c3ccccc23)[C@H](c2ccc(C(=O)NCCCCNC(=O)CC34CC5CC(CC(C5)C3)C4)cc2)N1C(=O)CCl is greater than or equal to 40%.
// result F

// query Could you tell me if the measured Activity of COC(=O)[C@H]1Cc2c([nH]c3ccccc23)[C@H](c2ccc(C(=O)NCCCCCNC(=O)CC34CC5CC(CC(C5)C3)C4)cc2)N1C(=O)CCl reaches 40% or more?
// result F

// query Item COC(=O)[C@H]1Cc2c([nH]c3ccccc23)[C@H](c2ccc(C(=O)NCCCCCCCCNC(=O)CC34CC5CC(CC(C5)C3)C4)cc2)N1C(=O)CCl with Activity of 40% or above?
// result F

// query Would you say COC(=O)[C@H]1Cc2c([nH]c3ccccc23)[C@H](c2ccc(C(=O)N3CCN(CCCCCCNC(=O)CC45CC6CC(CC(C6)C4)C5)CC3)cc2)N1C(=O)CCl shows Activity at minimum 40%?
// result T

// query // inclusive: Activity at least 40%? input: COC(=O)[C@H]1Cc2c([nH]c3ccccc23)[C@H](c2ccc(C(=O)NCCCCCCCNC(=O)CC34CC5CC(CC(C5)C3)C4)cc2)N1C(=O)CCl
// result T

// query Hi, just wondering whether COC(=O)[C@H]1Cc2c([nH]c3ccccc23)[C@H](c2ccc(C(=O)N3CCN(CCCCCCCCNC(=O)CC45CC6CC(CC(C6)C4)C5)CC3)cc2)N1C(=O)CCl shows Activity of 40% or higher.
// result T

// query Hello, I need to know if COC(=O)[C@H]1Cc2c([nH]c3ccccc23)[C@H](c2ccc(C(=O)NCCCCCCCNC(C)=O)cc2)N1C(=O)CCl has measured Activity not below 40%. Thanks!
// result F

* * *

System: HT-1080
run description: Antiproliferative activity against human HT-1080 cells assessed as inhibition of cell growth incubated for 72 hrs by MTT assay
Type: functional, cell-based
measurement parameters: HT-1080, 72 h
// returns condition not met unless IC50 is strictly below 90 nM, in which case condition met

// below: answered molecules
{"columns": ["structure as smiles", "target system", "discrete label"],
 "data": [
  ["COC(=O)[C@H]1Cc2c([nH]c3ccccc23)[C@H](c2ccc(C(=O)N3CCN(CCCCCCCCNC(=O)CC45CC6CC(CC(C6)C4)C5)CC3)cc2)N1C(=O)CCl", "HT-1080", "condition met"],
  ["COC(=O)[C@H]1Cc2c([nH]c3ccccc23)[C@H](c2ccc(C(=O)NCCCCCNC(=O)CC34CC5CC(CC(C5)C3)C4)cc2)N1C(=O)CCl", "HT-1080", "condition met"],
  ["COC(=O)[C@H]1Cc2c([nH]c3ccccc23)[C@H](c2ccc(C(=O)N3CCN(CCCCNC(=O)CC45CC6CC(CC(C6)C4)C5)CC3)cc2)N1C(=O)CCl", "HT-1080", "condition not met"]
]}

// query Lab note: IC50 threshold 90 nM. Does this molecule come in strictly under it? COC(=O)[C@H]1Cc2c([nH]c3ccccc23)[C@H](c2ccc(C(=O)NCCCCNC(=O)CC34CC5CC(CC(C5)C3)C4)cc2)N1C(=O)CCl
// result condition not met

// query Hi there! Is IC50 for COC(=O)[C@H]1Cc2c([nH]c3ccccc23)[C@H](c2ccc(C(=O)NCCOCCOCCNC(=O)CC34CC5CC(CC(C5)C3)C4)cc2)N1C(=O)CCl below 90 nM, do you know?
// result condition met

// query Please state whether IC50 is below 90 nM for COC(=O)[C@H]1Cc2c([nH]c3ccccc23)[C@H](c2ccc(C(=O)N3CCN(CCCCCCNC(=O)CC45CC6CC(CC(C6)C4)C5)CC3)cc2)N1C(=O)CCl
// result condition met

// query Please state whether IC50 is below 90 nM for COC(=O)[C@H]1Cc2c([nH]c3ccccc23)[C@H](c2ccc(C(=O)NCCCCCCCNC(C)=O)cc2)N1C(=O)CCl
// result condition not met

// query Confirm or reject: IC50 of COC(=O)[C@H]1Cc2c([nH]c3ccccc23)[C@H](c2ccc(C(=O)NCCOCCNC(=O)CC34CC5CC(CC(C5)C3)C4)cc2)N1C(=O)CCl lies strictly below 90 nM
// result condition not met

// query Please indicate whether the reported IC50 of COC(=O)[C@H]1Cc2c([nH]c3ccccc23)[C@H](c2ccc(C(=O)NCCCCCCCCNC(=O)CC34CC5CC(CC(C5)C3)C4)cc2)N1C(=O)CCl is strictly below 90 nM.
// result condition not met

* * *

Test system: HT-1080
run description: Antiproliferative activity against human HT-1080 cells assessed as inhibition of cell growth incubated for 72 hrs by MTT assay
Type: functional, cell-based
measurement parameters: HT-1080, 72 h
Rule: IC50 below 60 nM gives T. Equal to or above 60 nM gives F.

The following compounds have reported results that may help.
{"columns": ["structure as smiles", "target system", "discrete label"],
 "data": [
  ["COC(=O)[C@H]1Cc2c([nH]c3ccccc23)[C@H](c2ccc(C(=O)NCCOCCOCCOCCNC(=O)CC34CC5CC(CC(C5)C3)C4)cc2)N1C(=O)CCl", "HT-1080", "F"],
  ["COC(=O)[C@H]1Cc2c([nH]c3ccccc23)[C@H](c2ccc(C(=O)NCCCCCCCNC(=O)CC34CC5CC(CC(C5)C3)C4)cc2)N1C(=O)CCl", "HT-1080", "T"],
  ["COC(=O)[C@H]1Cc2c([nH]c3ccccc23)[C@H](c2ccc(C(=O)N3CCN(CCNC(=O)CC45CC6CC(CC(C6)C4)C5)CC3)cc2)N1C(=O)CCl", "HT-1080", "F"],
  ["COC(=O)[C@H]1Cc2c([nH]c3ccccc23)[C@H](c2ccc(C(=O)NCCCCCCNC(=O)CC34CC5CC(CC(C5)C3)C4)cc2)N1C(=O)CCl", "HT-1080", "T"],
  ["COC(=O)[C@H]1Cc2c([nH]c3ccccc23)[C@H](c2ccc(C(=O)NCCCCCCCCCCNC(=O)CC34CC5CC(CC(C5)C3)C4)cc2)N1C(=O)CCl", "HT-1080", "T"]
]}

# input for lookup
// query Check if IC50 falls below 60 nM for COC(=O)[C@H]1Cc2c([nH]c3ccccc23)[C@H](c2ccc(C(=O)NCCNC(=O)CC34CC5CC(CC(C5)C3)C4)cc2)N1C(=O)CCl .
// result T

Hello, the source for this data is ChEMBL document CHEMBL5614389, in case you need it.
